The reported measurements were obtained from patent US20240287154A1.

Target or test system: human MC4R (Homo sapiens, UniProt P32245)
Sequence (P32245 whole entry): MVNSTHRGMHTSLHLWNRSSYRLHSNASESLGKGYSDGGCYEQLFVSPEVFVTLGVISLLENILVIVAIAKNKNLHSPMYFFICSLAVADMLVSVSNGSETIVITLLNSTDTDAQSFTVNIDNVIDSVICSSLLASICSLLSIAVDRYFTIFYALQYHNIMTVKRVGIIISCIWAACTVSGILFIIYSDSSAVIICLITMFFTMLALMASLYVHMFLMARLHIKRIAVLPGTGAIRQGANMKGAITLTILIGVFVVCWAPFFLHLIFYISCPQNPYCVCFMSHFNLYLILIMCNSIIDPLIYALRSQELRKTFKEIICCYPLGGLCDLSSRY
Assay explanation: Intracellular cAMP levels in live cells, MC3R selectivity relative to MC4R
Assay type: cell-based
Protocol conditions: cAMP assays in human MC3R and human MC4R stable cell lines
Non-standard residues stand in square brackets, D forms with d. Residues, ends and D or L forms follow the SMILES beside them. Nle = CCCC[C@H](N)C(=O)O
Quantity measured: MC3R selectivity (relative to MC4R)
Lab note: write the figure by itself, no unit.

>>> measured("CCCC[C@H](NC(C)=O)C(=O)N[C@H](C)C(=O)N[C@@H](Cc1c[nH]cn1)C(=O)N[C@@H](Cc1ccccc1)C(=O)N[C@@H](CCCNC(=N)N)C(=O)N[C@H](Cc1c[nH]c2ccccc12)C(=O)NCC(N)=O [CTX-1540, Nle-D-Ala-His-Phe-Arg-D-Trp-Gly] (Ac-[Nle][dA]HFR[dW]G-NH2)")
11

Shift focus to the following entry.
Request: # get_value(readout='MC3R selectivity (relative to MC4R)', item= CCCC[C@H](NC(C)=O)C(=O)N[C@H](C)C(=O)N[C@@H](Cc1c[nH]cn1)C(=O)N[C@@H](Cc1ccccc1)C(=O)N[C@@H](CCCNC(=N)N)C(=O)N[C@H](Cc1c[nH]c2ccccc12)C(=O)N[C@@H](CC(=O)O)C(=O)N[C@@H](CCCNC(=N)N)C(N)=O [CTX-1163, Nle-D-Ala-His-Phe-Arg-D-Trp-Asp-Arg] (Ac-[Nle][dA]HFR[dW]DR-NH2) )
Response: 282

---

# pEC50 per record follows
Target or test system: human MC3R (Homo sapiens, UniProt P41968)
Construct: expressed in transfected cells
Sequence (P41968 whole entry): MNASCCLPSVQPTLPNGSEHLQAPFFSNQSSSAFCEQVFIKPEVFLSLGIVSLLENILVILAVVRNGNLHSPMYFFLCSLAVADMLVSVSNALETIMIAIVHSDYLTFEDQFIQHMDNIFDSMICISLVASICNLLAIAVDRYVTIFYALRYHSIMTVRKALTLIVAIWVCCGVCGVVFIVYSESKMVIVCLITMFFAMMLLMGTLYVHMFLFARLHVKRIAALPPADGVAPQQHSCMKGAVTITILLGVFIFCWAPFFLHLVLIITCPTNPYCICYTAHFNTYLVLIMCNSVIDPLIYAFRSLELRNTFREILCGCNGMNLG
Assay explanation: Intracellular cAMP levels in live cells, MC3R agonist activity
Format: cell-based
Protocol conditions: cAMP split-luciferase reporter cell line stably expressing human MC3R; direct agonist effect, measurement window 1
Non-standard residues stand in square brackets, D forms with d. Residues, ends and D or L forms follow the SMILES beside them. Phe(4-F) = N[C@@H](Cc1ccc(F)cc1)C(=O)O; Phe(4-I) = N[C@@H](Cc1ccc(I)cc1)C(=O)O; Nle = CCCC[C@H](N)C(=O)O; dAbu = CC[C@@H](N)C(=O)O
# pEC50 is unitless: minus log10 of the molar concentration; print number only

// below: answered compounds
>>> measured("CCCC[C@H](NC(C)=O)C(=O)N[C@H](CC)C(=O)N[C@@H](Cc1c[nH]cn1)C(=O)N[C@@H](Cc1ccc(I)cc1)C(=O)N[C@@H](CCCNC(=N)N)C(=O)N[C@H](Cc1c[nH]c2ccccc12)C(=O)N[C@@H](CC(=O)O)C(=O)N[C@@H](CCCNC(=N)N)C(=O)N[C@@H](Cc1ccccc1)C(=O)NCC(=O)O [CTX-1191] (Ac-[Nle][dAbu]H[Phe(4-I)]R[dW]DRFG-OH)")
8.41
>>> measured("CCCC[C@H](NC(C)=O)C(=O)N[C@H](C)C(=O)N[C@@H](Cc1c[nH]cn1)C(=O)N[C@@H](Cc1ccc(I)cc1)C(=O)N[C@@H](CCCNC(=N)N)C(=O)N[C@H](Cc1c[nH]c2ccccc12)C(=O)NCC(N)=O [CTX-1543, Nle-D-Ala-His-Phe(4-I)-Arg-D-Trp-Gly] (Ac-[Nle][dA]H[Phe(4-I)]R[dW]G-NH2)")
8.51

Request: Given the entry CSCC[C@H](N)C(=O)NCC(=O)N[C@@H](Cc1c[nH]cn1)C(=O)N[C@@H](Cc1ccccc1)C(=O)N[C@@H](CCCNC(=N)N)C(=O)N[C@H](Cc1c[nH]c2ccccc12)C(=O)N[C@@H](CC(=O)O)C(=O)N[C@@H](CCCNC(=N)N)C(=O)N[C@@H](Cc1ccccc1)C(=O)NCC(=O)O [CTX-1547] (H-MGHFR[dW]DRFG-OH) , what pEC50 was observed with human MC3R (Homo sapiens, UniProt P41968)?
Response: 8.82

Request: Next up: CCCC[C@H](NC(=O)CNC(=O)COCCOCCNC(=O)CNC(=O)CCc1ccc(I)cc1)C(=O)N[C@H](C)C(=O)N[C@@H](Cc1c[nH]cn1)C(=O)N[C@@H](Cc1ccccc1)C(=O)N[C@@H](CCCNC(=N)N)C(=O)N[C@H](Cc1c[nH]c2ccccc12)C(=O)N[C@@H](CC(=O)O)C(=O)N[C@@H](CCCNC(=N)N)C(=O)N[C@H](Cc1ccccc1)C(=O)NCC(=O)O [CTX-1154]
Response: 8.24

Request: Next up: CCCC[C@H](NC(=O)[C@@H](NC(=O)[C@@H](N)Cc1ccc(O)cc1)C(C)C)C(=O)N[C@H](C)C(=O)N[C@@H](Cc1c[nH]cn1)C(=O)N[C@H](Cc1ccccc1)C(=O)N[C@@H](CCCNC(=N)N)C(=O)N[C@H](Cc1c[nH]c2ccccc12)C(=O)N[C@@H](CC(=O)O)C(N)=O [CTX-1109] (H-YV[Nle][dA]H[dF]R[dW]D-NH2)
Response: 7.88

Request: Next up: CCCC[C@H](NC(C)=O)C(=O)N[C@H](C)C(=O)N[C@@H](Cc1c[nH]cn1)C(=O)N[C@@H](Cc1ccc(F)cc1)C(=O)N[C@@H](CCCNC(=N)N)C(=O)N[C@H](Cc1c[nH]c2ccccc12)C(=O)N[C@@H](CC(=O)O)C(=O)N[C@@H](CCCNC(=N)N)C(=O)N[C@@H](Cc1ccccc1)C(=O)NCC(=O)O [CTX-1518] (Ac-[Nle][dA]H[Phe(4-F)]R[dW]DRFG-OH)
Response: 8.72
